ASSAY_SUMMARY: yeast display, Sf9 membrane polyspecificity reagent, FACS + sequencing; frameworks hold sequencing errors
VALUE_KIND: polyreactivity (PSR sort gate)

| MACROMOLECULE_SEQUENCE | MEASURED_VALUE |
| --- | --- |
| QVQLVESGGGLVQAGGSLRLSCAASGGIFAVYAMGWYRQAPGKERELVAAITWRGGSTRYADSVKGRFTISRDNAKNTVHLQMNSLIPEDTAVYYCAVRSTGYPSRYYYWGQGTQVTVSS | high polyreactivity |
| QVQLVESGGGLVQAGGSLRLSCAASGRTIKKYTMGWSRQAPGKERELVAVITSGGSTYYADSVKGRFTISRDNAKNTVYFQMNSLKPEDTAVYYCAVIYPELRTWGYYFWGQGTQVTVSS | high polyreactivity |
| QVQLVESGGGLVQAGGSLRLSCAASGSTFTSYAMGWYRQAPGKERELVAAISKSGGSTYYADSVKGRFTISRDNAKNTVYLQMNSLKPEDTAVYYCAKYIAYYGYVPSPWDHPGDDYWGQGTQVTVSS | low polyreactivity |
| QVQLVESGGGLVQAGCSLRLSCAASGSIFYQYSMGWYRQAPGKERELVAAITWDGSRTYYADSVKGRFTISRDNAKNSVYLQMNSLKPEDTSVYYSNAVTRYSLFDYWGLGTQVTVSS | high polyreactivity |
| QVQLVESGGGLVQAGGSLRLSCAASGRIFRIYTMGWYREAPGKERELVAAISKSGGGTYYADSVKGRFTISRDNAKNTVYLQMNSLKPEDTAVYYCAAVSPNTAYDYWGQGTQVTVSS | high polyreactivity |
| QVQLGESGGGLVQAGGSLRLSCAASGSIVDVYAMGWYRPAPGKERELVADITSGDITNYADSVKGRFTISRDNAKNTVYLQMNSLKPEDTAVYYCATPLKLAYSPKLDYWGQGTQLTVSS | low polyreactivity |
| QVQLVESGGGLVQAGGSLRLSCAASGSIFAKYAMGWYRQAPGKERELVAAITGSGGSTYYADSVKGRFTISRDNAKNTVYLQMNSVKPEDTAVYYCAKRRPRYTYNYWGQGTQVTVSS | high polyreactivity |
| QVQLVESGGGLVQAGGSLRLICAASGLTFGSNGMGWYRQAPGKERELVAAISRGGSTSYADSVKGRFTISRDNAKNTVYLQMNSLKPEDTAVYYCNASPWGPSYFRTPYYGVRRYNYWGQGTQVTVSS | high polyreactivity |
| QVQLVESGGGLVQAGGSLPLSCAASGSIFYSNAMGWYRQAPGKERELVARISRSGGSTYYADSVKGRFTISRDNAKNTVYLQMNSLKPEDTAVYYCAKTFTRSWGLGGSWGQGTQVTVSS | low polyreactivity |
| QVQLVESGGGLVQAGGRLRLSCAASGSTFIYYAMGWYRQAPGKERELVAAITGRGTRTYYADSVKGRFTISRDNAKNTVYLQMNSLKPEDTAVYYCNTLQTYLYDYWGQGTQVTVSS | high polyreactivity |
| QVQLVESGGGLVQAGGSLRLSCAASGGTFNSNAMGWYRQAPGKERELVASITWRCGTYYADSVKGRFTISRDNAKNTVYLQMNSLKPVDTAVYYCAADTYYKGDYWGQGTQVTVSS | high polyreactivity |
